Target: T1, human plasmin (human, UniProt P00747 97-810, limits assumed)
T1 construct: also called plasmin-beads; plasmin-agarose beads
T1 sequence (P00747 97-810 limits assumed): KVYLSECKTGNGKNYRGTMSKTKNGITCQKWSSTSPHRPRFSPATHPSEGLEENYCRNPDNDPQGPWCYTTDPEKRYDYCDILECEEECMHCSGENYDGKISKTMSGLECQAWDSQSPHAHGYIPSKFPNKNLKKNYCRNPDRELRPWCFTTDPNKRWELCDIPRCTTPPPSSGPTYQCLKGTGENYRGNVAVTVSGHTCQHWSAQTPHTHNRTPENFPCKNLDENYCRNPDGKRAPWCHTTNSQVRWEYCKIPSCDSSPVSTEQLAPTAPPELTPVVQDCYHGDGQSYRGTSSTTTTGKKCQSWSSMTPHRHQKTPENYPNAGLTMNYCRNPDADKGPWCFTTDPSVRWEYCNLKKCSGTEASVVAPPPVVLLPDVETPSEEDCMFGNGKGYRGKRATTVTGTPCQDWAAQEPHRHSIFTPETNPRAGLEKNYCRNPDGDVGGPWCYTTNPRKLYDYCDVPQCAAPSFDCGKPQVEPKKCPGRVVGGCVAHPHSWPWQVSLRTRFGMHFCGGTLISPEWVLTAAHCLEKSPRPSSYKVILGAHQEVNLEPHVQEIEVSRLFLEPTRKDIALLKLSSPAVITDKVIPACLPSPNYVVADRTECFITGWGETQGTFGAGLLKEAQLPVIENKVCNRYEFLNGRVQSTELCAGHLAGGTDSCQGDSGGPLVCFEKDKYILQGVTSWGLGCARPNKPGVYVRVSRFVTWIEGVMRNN
Assay: inhibition of plasmin by soluble protein; measured Ki used as KD
value.type: pKd
# pKd is unitless: minus log10 of the molar concentration; print number only

Given the entry SPI11 (Selected Plasmin Inhibitor#11) (designed binder, also called isolate 11) MHSFCAFKAETGPCRARFDRWFFNIFTRQCEEFIYGGCEGNQNRFESLEECKKMCTRD , report its measured pKd.
10.06

src = patent US20090036365A1
